tested on: GM 07492; experiment: MTS cytotoxicity assay, normal fibroblasts GM 07492; type: cell-based; conditions: 72 h incubation, normal human fibroblasts, mean ± SD
pIC50: −log10 of the molar value.
measurement-type: pIC50

Q: # returns recorded pIC50 (system: GM 07492) for "Oc1ccccc1C=Cc1ccc2ccccc2n1"
Result: < 4.60

Q: Now this one: "CC(=O)Oc1ccccc1C=Cc1ccc2cccc(OC(C)=O)c2n1"
Result: 5.16

Q: Now this one: "CC(=O)Oc1cccc(C=Cc2ccc3cccc(O)c3n2)c1"
Result: < 4.60

Q: Now this one: "CC(=O)Oc1ccccc1C=Cc1ccc2cccc(O)c2n1"
Result: < 4.60

---

Would you mind telling me the reported melting point of each entry?
Answer format: numeric, °C implied, no suffix.

Q: GET /values?readout=melting point&item= CC(=O)Oc1ccc(C=Cc2ccc3cccc(OC(C)=O)c3n2)c(OC(C)=O)c1OC(C)=O [14b]
Result: 194

Q: Now this one: COc1cc(C=Cc2ccc3cccc(O)c3n2)cc(OC(C)=O)c1OC(C)=O [7b]
Result: 172

Q: Now this one: CC(=O)Oc1cccc2ccc(C=Cc3ccccc3F)nc12 [12b]
Result: 117

Q: Now this one: Oc1ccc(C=Cc2ccc3cccc(O)c3n2)c(O)c1 [20b]
Result: 273

Q: Now this one: CC(=O)Oc1cc(OC(C)=O)c(C=Cc2ccc3cccc(OC(C)=O)c3n2)c(OC(C)=O)c1 [10b]
Result: 189

Q: Now this one: Oc1ccccc1C=Cc1ccc2cccc(O)c2n1 [18b]
Result: 316

Q: Now this one: Oc1cccc2ccc(C=Cc3ccccc3F)nc12 [11b]
Result: 239

Q: Now this one: CCOc1ccc(C=Cc2ccc3cccc(O)c3n2)cc1 [16b]
Result: 130

Q: Now this one: CCOc1ccccc1C=Cc1ccc2cccc(O)c2n1 [15b]
Result: 100

---

test system: HCT116 (p53-/-); assay: MTS anti-proliferative assay, HCT116 (p53-/-); type: cell-based, human; details: Homo sapiens, HCT-116; MTS, 72 h incubation, mean ± SD
Would you mind telling me the reported IC50 of each entry?
Answer format: numeric, µM implied, no suffix.

Q: GET /values?readout=IC50&item= "CCOc1ccc(C=Cc2ccc3c(Cl)cc(Cl)c(O)c3n2)cc1"
Result: 3.53

Q: Now this one: Oc1cccc2ccc(C=Cc3ccccc3Cl)nc12 [17b]
Result: 7.97

Q: Now this one: Oc1cccc(C=Cc2ccc3cccc(O)c3n2)c1 [19b]
Result: 10.6

Q: Now this one: CCOc1ccccc1C=Cc1ccc2cccc(O)c2n1 [15b]
Result: 12.8

Q: Now this one: CC(=O)Oc1cccc2ccc(C=Cc3ccccc3F)nc12 [12b]
Result: 5.78

---

system: HCT116 (p53-/-); assay: MTS anti-proliferative assay, HCT116 (p53-/-); assay type: cell-based, human; conditions: Homo sapiens, HCT-116; MTS, 72 h incubation, mean ± SD
measurement-type: pIC50
Notebook: values listed as pIC50 are -log10 of the concentration (mol/L).

Q: GET /values?readout=pIC50&item= COc1cccc(C=Cc2ccc3cccc(O)c3n2)c1 [13b]
Result: 4.73

Q: Now this one: Oc1ccccc1C=Cc1ccc2cccc(O)c2n1 [18b]
Result: 4.82

Q: Now this one: "COc1ccc(/C=C/c2nc(NCCCN(C)C)c3ccccc3n2)cc1"
Result: 4.58

Q: Now this one: Oc1cccc2ccc(C=Cc3ccccc3F)nc12 [11b]
Result: 5.08

Q: Now this one: CCOc1ccc(C=Cc2ccc3cccc(O)c3n2)cc1 [16b]
Result: 4.79

Q: Now this one: CC(=O)Oc1ccc(C=Cc2ccc3cccc(OC(C)=O)c3n2)c(OC(C)=O)c1OC(C)=O [14b]
Result: 4.94

Q: Now this one: "CCOc1ccccc1C=Cc1ccc2c(Cl)cc(Cl)c(O)c2n1"
Result: 5.49

Q: Now this one: "COc1cccc2c1C(=O)c1c(O)c3c(c(O)c1C2=O)C[C@@](O)(C(=O)CO)C[C@@H]3O[C@H]1C[C@H](N)[C@H](O)[C@H](C)O1"
Result: 5.78

Origin of the recorded values: paper PMC4657899
